// IC50 lookup, one value per entry
target: PI3K γ (Homo sapiens, UniProt P48736); construct: purchased Sigma; test: In vitro IC50, PI3K γ (p110γ inhibition assay); type: biochemical; conditions: in vitro kinase assay
Sequence (P48736 whole entry): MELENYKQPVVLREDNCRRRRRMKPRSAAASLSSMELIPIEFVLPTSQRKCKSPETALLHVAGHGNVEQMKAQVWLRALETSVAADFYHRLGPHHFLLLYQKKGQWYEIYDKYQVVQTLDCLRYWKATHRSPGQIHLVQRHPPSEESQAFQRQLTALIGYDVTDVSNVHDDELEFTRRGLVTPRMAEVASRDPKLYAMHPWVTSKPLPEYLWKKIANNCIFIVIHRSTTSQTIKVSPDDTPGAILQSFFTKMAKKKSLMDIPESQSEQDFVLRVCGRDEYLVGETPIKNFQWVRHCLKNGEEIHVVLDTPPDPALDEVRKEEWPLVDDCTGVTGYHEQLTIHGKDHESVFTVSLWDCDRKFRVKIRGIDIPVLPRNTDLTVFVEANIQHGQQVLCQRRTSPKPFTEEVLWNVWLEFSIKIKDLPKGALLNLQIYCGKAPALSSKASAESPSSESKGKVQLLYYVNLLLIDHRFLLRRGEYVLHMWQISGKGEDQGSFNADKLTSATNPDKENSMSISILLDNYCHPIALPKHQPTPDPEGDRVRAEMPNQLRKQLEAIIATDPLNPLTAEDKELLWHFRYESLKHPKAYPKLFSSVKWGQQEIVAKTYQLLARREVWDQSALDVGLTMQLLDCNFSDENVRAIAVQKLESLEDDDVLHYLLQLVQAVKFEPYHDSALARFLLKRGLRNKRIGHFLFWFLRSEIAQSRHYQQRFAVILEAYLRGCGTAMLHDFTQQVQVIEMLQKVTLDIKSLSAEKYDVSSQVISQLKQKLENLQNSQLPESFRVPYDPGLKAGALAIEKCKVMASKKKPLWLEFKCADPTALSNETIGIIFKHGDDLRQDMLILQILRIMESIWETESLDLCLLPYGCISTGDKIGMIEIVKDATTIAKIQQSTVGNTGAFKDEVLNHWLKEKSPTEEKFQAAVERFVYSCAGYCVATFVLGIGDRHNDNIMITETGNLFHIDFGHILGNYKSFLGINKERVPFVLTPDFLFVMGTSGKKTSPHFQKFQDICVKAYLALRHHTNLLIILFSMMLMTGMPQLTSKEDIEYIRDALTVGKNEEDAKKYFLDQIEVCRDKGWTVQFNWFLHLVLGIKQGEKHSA

Example results:
C[C@@H](Nc1ncnc2[nH]cnc12)c1cc2cccc(Cl)c2c(OC2CCN(S(C)(=O)=O)CC2)n1    > 10000 nM
Cc1cccc2cc(Cn3nc(-c4ccc5oc(N)nc5c4)c4c(N)ncnc43)nc(N3CCCC3)c12    < 100 nM
CC(Nc1ncnc2[nH]cnc12)c1cc2cccc(Cl)c2c(CN2CCN(S(C)(=O)=O)CC2)n1 (stereo not shown)    > 10000 nM
CCN1CCC(Oc2nc(C(C)Nc3ncnc4[nH]cnc34)cc3cccc(C)c23)CC1 (stereo not shown)    > 10000 nM
Cc1cccc2cc(C(C)Nc3ncnc4[nH]cnc34)nc(CCN3CCN(S(C)(=O)=O)CC3)c12 (stereo not shown)    < 10000 nM

Query :: IC50 for CC(Nc1ncnc2[nH]cnc12)c1cc2ccccc2c(OC2CCN(C(C)C)CC2)n1 (stereo not shown) ?
Result :: > 10000 nM

Query :: Param item = `Nc1ncnc2c1c(-c1cn[nH]c1)nn2Cc1cc2cccc(Cl)c2c(N2CCCC2)n1` ; retrieve measured IC50.
Result :: < 1000 nM

====

Listed here: items and their measured IC50.
Biological target: PI3K γ (Homo sapiens, UniProt P48736)
Construct: purchased Sigma
Assay: In vitro IC50, PI3K γ (p110γ inhibition assay)
Type: biochemical
Details: in vitro kinase assay
Description: Class I PI3-Ks can be either purchased (p110α/p85α, p110β/p85α, p110δ/p85α from Upstate, and p110γ from Sigma) or expressed as previously described (Knight et al., 2004). IC50 values are measured using either a standard TLC assay for lipid kinase activity (described below) or a high-throughput membrane capture assay. […] The TLC plates are then dried, exposed to a phosphorimager screen (Storm, Amersham), and quantitated. […]

Solved cases below.
Cc1cccc2cc(C(C)Nc3ncnc4[nH]cnc34)nc(OC3CCOCC3)c12 (stereo not shown)    > 10000 nM
CN1CCC(Oc2nc(Cn3nc(-c4cn[nH]c4)c4c(N)ncnc43)cc3cccc(Cl)c23)CC1    > 10000 nM
CC(=O)N1CCN(c2nc([C@H](C)Nc3ncnc4[nH]cnc34)nc3cccc(Cl)c23)CC1    < 1000 nM
Cc1cccc2cc(C(C)Nc3ncnc4[nH]cnc34)nc(N3CCN(C)CC3)c12 (stereo not shown)    > 10000 nM

Query :: Give its IC50 value. Item: `Cc1cccc2cc(Cn3nc(-c4ccc5oc(N)nc5c4)c4c(N)ncnc43)nc(N3CCN(C)CC3)c12`
Result :: < 100 nM

Query :: Fill in the blank: the reported IC50 of `C[C@H](Nc1ncnc2[nH]cnc12)c1cc2cccc(Cl)c2c(-c2cccnc2)n1` is ____.
Result :: < 1000 nM

Query :: GET /values?readout=IC50&item= Cc1cccc2cc(C(C)Nc3ncnc4[nH]cnc34)nc(NC3CCN(C)CC3)c12 (stereo not shown)
Result :: > 10000 nM

Query :: Given the molecule `C[C@H](Nc1ncnc2[nH]cnc12)c1cc2cccc(Cl)c2c(N2CCN(S(C)(=O)=O)CC2)n1` , what is its reported IC50?
Result :: < 1000 nM

Query :: Reported IC50 for CC(=O)N1CCC(Oc2nc(C(C)Nc3ncnc4[nH]cnc34)cc3cccc(C)c23)CC1 (stereo not shown) : what is it?
Result :: < 1000 nM

Query :: Query (molecule): `C[C@H](Nc1ncnc2[nH]cnc12)c1nc(N2CCOCC2)c2c(Cl)cccc2n1` ; field requested: IC50
Result :: > 10000 nM

Query :: What IC50 value was documented for this molecule, `CCN1CCC(Oc2nc(Cn3nc(-c4ccc5oc(N)nc5c4)c4c(N)ncnc43)cc3cccc(C)c23)CC1` ?
Result :: < 100 nM

Query :: Value lookup for IC50; key = `C[C@H](Nc1ncnc2[nH]cnc12)c1nc(N2CCN(S(C)(=O)=O)CC2)c2c(Cl)cccc2n1`
Result :: < 10000 nM

Query :: Field request: IC50 | item: `C[C@H](Nc1ncnc2[nH]cnc12)c1cc2cccc(Cl)c2c(OCCN2CCN(S(C)(=O)=O)CC2)n1`
Result :: < 10000 nM

====

Items are presented alongside their recorded IC50.
target: PI3K γ (Homo sapiens, UniProt P48736); construct: purchased Sigma; experiment: In vitro IC50, PI3K γ (p110γ inhibition assay); type: biochemical; conditions: in vitro kinase assay

Completed entries (count: 3):
C[C@H](Nc1ncnc2[nH]cnc12)c1cc2cccc(Cl)c2c(N2CCOCC2)n1    < 10000 nM
Cc1cccc2cc([C@H](C)Nc3ncnc4[nH]cnc34)nc(OC3CCN(S(C)(=O)=O)CC3)c12    < 10000 nM
C[C@H](Nc1ncnc2[nH]cnc12)c1nc(N2CCCC2)c2c(Cl)cccc2n1    > 10000 nM

Query :: Which IC50 reading was recorded for the compound `CCN1CCC(Oc2nc(Cn3nc(-c4cn[nH]c4)c4c(N)ncnc43)cc3cccc(C)c23)CC1` ?
Result :: > 10000 nM

====

molecular target: PI3K γ (Homo sapiens); construct: purchased Sigma; assay: In vitro IC50, PI3K γ (p110γ inhibition assay); type: biochemical; conditions: in vitro kinase assay
MEASUREMENT_TYPE: IC50

CC(=O)N1CCC(Nc2nc(C(C)Nc3ncnc4[nH]cnc34)cc3cccc(C)c23)CC1 (centres unmarked) [Compound 49]    < 10000 nM

Query :: Would you mind telling me what IC50 value was observed for Cc1cccc2cc(C(C)Nc3ncnc4[nH]cnc34)nc(OC3CCNCC3)c12 (centres unmarked) [Compound 14] ?
Result :: > 10000 nM

Query :: // query IC50 value for entry Cc1cccc2cc(C(C)Nc3ncnc4[nH]cnc34)nc(CCN3CCCC3)c12 (centres unmarked) [Compound 39]
Result :: > 10000 nM

====

The following molecules are listed with their measured IC50 values.
target: PI3K δ (Homo sapiens, UniProt O00329); construct: purchased Upstate; experiment: In vitro IC50, PI3K δ (p110δ/p85α inhibition assay); assay type: biochemical; details: in vitro kinase assay; read-out: IC50(nM) PI3K δ
Sequence (O00329 whole entry): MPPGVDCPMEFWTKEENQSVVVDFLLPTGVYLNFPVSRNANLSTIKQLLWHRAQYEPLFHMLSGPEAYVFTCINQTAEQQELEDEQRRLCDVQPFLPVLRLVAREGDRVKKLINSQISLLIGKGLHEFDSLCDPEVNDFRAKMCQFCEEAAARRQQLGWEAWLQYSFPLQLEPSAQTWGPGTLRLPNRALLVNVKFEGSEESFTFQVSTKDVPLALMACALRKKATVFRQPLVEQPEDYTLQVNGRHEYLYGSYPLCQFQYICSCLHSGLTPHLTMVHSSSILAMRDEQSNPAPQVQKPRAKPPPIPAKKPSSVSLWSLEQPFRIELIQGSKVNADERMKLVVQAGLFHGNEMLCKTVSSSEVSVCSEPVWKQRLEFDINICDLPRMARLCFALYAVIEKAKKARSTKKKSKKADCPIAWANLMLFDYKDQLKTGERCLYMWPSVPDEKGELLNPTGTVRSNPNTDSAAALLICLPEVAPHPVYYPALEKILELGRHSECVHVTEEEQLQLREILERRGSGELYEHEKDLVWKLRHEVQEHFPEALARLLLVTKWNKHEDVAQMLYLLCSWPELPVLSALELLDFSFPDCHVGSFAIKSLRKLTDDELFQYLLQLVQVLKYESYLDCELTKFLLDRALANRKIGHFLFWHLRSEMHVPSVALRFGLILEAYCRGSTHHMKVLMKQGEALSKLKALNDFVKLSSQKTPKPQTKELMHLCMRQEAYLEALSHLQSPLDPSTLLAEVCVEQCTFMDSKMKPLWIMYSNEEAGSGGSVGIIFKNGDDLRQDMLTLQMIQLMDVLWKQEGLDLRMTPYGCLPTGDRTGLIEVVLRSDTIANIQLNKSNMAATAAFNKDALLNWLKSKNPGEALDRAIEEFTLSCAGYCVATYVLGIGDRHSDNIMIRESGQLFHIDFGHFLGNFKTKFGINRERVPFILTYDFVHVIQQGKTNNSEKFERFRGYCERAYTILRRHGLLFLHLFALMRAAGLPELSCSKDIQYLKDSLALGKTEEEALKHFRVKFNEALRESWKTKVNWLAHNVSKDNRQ
Sequence (P27986 whole entry partner): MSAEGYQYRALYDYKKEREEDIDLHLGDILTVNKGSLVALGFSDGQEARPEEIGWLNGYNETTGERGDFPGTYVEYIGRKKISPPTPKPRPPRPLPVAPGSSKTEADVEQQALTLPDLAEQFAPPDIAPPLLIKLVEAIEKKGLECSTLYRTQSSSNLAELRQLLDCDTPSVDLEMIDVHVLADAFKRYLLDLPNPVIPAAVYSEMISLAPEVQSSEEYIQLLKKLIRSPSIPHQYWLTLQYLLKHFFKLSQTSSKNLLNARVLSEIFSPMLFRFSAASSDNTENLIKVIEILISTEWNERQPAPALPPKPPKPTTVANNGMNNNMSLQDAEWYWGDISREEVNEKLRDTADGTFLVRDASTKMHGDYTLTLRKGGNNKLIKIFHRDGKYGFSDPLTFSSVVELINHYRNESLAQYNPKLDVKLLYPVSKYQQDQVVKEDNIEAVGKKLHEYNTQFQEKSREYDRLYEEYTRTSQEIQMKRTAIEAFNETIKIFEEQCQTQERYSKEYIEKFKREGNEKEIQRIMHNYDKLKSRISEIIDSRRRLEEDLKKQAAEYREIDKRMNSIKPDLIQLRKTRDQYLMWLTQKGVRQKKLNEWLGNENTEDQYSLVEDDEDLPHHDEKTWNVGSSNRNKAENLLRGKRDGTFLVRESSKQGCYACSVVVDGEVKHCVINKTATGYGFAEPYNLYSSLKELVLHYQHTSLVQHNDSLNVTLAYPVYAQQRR

Cc1cccc2cc(Cn3nc(-c4ccc5oc(N)nc5c4)c4c(N)ncnc43)nc(OC(C)C)c12 [Compound 29]    > 10000 nM
Cc1cccc2cc(C(C)Nc3ncnc4[nH]cnc34)nc(OCC3CCN(C(C)C)CC3)c12 (centres unmarked) [Compound 51]    < 100 nM
Cc1cccc2cc(C(C)Nc3ncnc4[nH]cnc34)nc(CCN3CCN(C)CC3)c12 (centres unmarked) [Compound 20]    < 100 nM

Query :: Query: IC50; subject: CCN1CCC(COc2nc(C(C)Nc3ncnc4[nH]cnc34)cc3cccc(C)c23)CC1 (centres unmarked) [Compound 46]
Result :: < 100 nM

Query :: Field request: IC50 | item: CC(=O)N1CCN(c2nc([C@H](C)Nc3ncnc4[nH]cnc34)nc3cccc(Cl)c23)CC1 [Compound 96]
Result :: < 1000 nM

Query :: // IC50 lookup, key: Cc1cccc2cc(C(C)Nc3ncnc4[nH]cnc34)nc(OC(C)C)c12 (centres unmarked) [Compound 32]
Result :: < 10000 nM

Query :: # query: IC50 of entry C[C@@H](Nc1ncnc2[nH]cnc12)c1cc2cccc(Cl)c2c(N2CCN(S(C)(=O)=O)CC2)n1 [Compound 83]
Result :: > 10000 nM

Query :: IC50 lookup needed for Cc1cccc2cc(Cn3nc(-c4cn[nH]c4)c4c(N)ncnc43)nc(N3CCCC3)c12 [Compound 27] , thanks.
Result :: < 100 nM

Query :: Entry under review: Cc1cccc2cc([C@@H](C)Nc3ncnc4[nH]cnc34)nc(OC3CCN(S(C)(=O)=O)CC3)c12 [Compound 87] . Reported IC50?
Result :: < 10000 nM

Query :: Tell me the measured IC50 of C[C@H](Nc1ncnc2[nH]cnc12)c1cc2cccc(Cl)c2c(CCN2CCC(F)(F)C2)n1 [Compound 91] , please.
Result :: < 100 nM

Query :: GET /values?readout=IC50&item= Cc1cccc2cc(C(C)Nc3ncnc4[nH]cnc34)nc(NC3CCOCC3)c12 (centres unmarked) [Compound 43]
Result :: < 10000 nM

Query :: Field request: IC50 | item: Cc1cccc2cc(Cn3nc(-c4ccc5oc(N)nc5c4)c4c(N)ncnc43)nc(OC3CCN(C)CC3)c12 [Compound 5]
Result :: < 100 nM

Query :: Name the recorded IC50 for CC(=O)N1CCC(Oc2nc(C(C)Nc3ncnc4[nH]cnc34)cc3ccccc23)CC1 (centres unmarked) [Compound 52] .
Result :: < 1000 nM

Query :: Looking for the measured IC50 of CC(=O)N1CCN(c2nc(Cn3nc(-c4cn[nH]c4)c4c(N)ncnc43)cc3cccc(Cl)c23)CC1 [Compound 70] , can you help?
Result :: < 100 nM

Query :: Value lookup for IC50; key = Nc1ncnc2c1c(-c1cn[nH]c1)nn2Cc1cc2cccc(Cl)c2c(N2CCOCC2)n1 [Compound 66]
Result :: < 100 nM

Query :: May I ask what IC50 has been recorded for CCN(Cc1cc2cccc(C)c2c(OC2CCN(C(C)C)CC2)n1)c1ncnc2[nH]cnc12 [Compound 11] ?
Result :: < 10000 nM
